Biological target: HLA-A*23:01
Experiment: IEDB peptide-MHC binding, purified MHC/competitive/fluorescence; filed as Kd, often an IC50 or EC50 that approximates it; bounds were set here for any values at or beyond the usual limits of such assays
Conditions: source organism: Burkholderia mallei SAVP1
ASSAY METRIC: Kd

In: Checklist item: Kd tested on HLA-A*23:01, entry RFNAIWFNH , value?
Out: ≥ 20 µM

###

Biological target: HLA-B*51:01
Assay: IEDB peptide-MHC binding, purified MHC/competitive/radioactivity; filed as Kd, often an IC50 or EC50 that approximates it; bounds were set here for any values at or beyond the usual limits of such assays
Conditions: source organism: Dengue virus 1 Brazil/97-11/1997
ASSAY METRIC: Kd

In: Find the recorded Kd belonging to LPVLLGSFGC and report it.
Out: ≥ 43.5 µM

Where do these numbers come from? They come from the Immune Epitope Database (IEDB).
